System: SNU-C2B
MEASUREMENT_DESCRIPTION: Drug combination screen (ATPlite, Synergy Score), SNU-C2B
ASSAY_CONDITIONS: compound in combination with IgG1-hDR5-01-G56T-E430G + IgG1-hDR5-05-E430G; SNU-C2B; 72 hour ATPlite, 6x6 matrix
Give Yes when the value for Synergy Score SNU-C2B is at least 7. Give No when it is less.

**Query** Test whether the compound O=C1NC(=O)/C(=C/c2ccc3nccc(-c4ccncc4)c3c2)S1 records Synergy Score SNU-C2B of 7 or higher.
**Result** No

**Query** Test whether the compound CCN1CCN(c2ccc(Nc3cc(N(C)C(=O)Nc4c(Cl)c(OC)cc(OC)c4Cl)ncn3)cc2)CC1 records Synergy Score SNU-C2B of 7 or higher.
**Result** No

**Query** Test whether the compound COc1cccc2c1C(=O)c1c(O)c3c(c(O)c1C2=O)C[C@@](O)(C(=O)CO)C[C@@H]3O[C@H]1C[C@H](N)[C@@H](O)[C@H](C)O1 [Epirubicin] records Synergy Score SNU-C2B of 7 or higher.
**Result** Yes

**Query** Test whether the compound CC(C)(C)c1nc(-c2cccc(NS(=O)(=O)c3c(F)cccc3F)c2F)c(-c2ccnc(N)n2)s1 records Synergy Score SNU-C2B of 7 or higher.
**Result** No

**Query** Test whether the compound CCc1cc(Nc2nccc(-c3c(-c4ccc(OC)c(C(=O)Nc5c(F)cccc5F)c4)nc4ccccn34)n2)c(OC)cc1N1CCC(N2CCN(S(C)(=O)=O)CC2)CC1 [GSK1904529A] records Synergy Score SNU-C2B of 7 or higher.
**Result** No

**Query** Test whether the compound Nc1ccn([C@@H]2O[C@H](CO)[C@@H](O)C2(F)F)c(=O)n1 records Synergy Score SNU-C2B of 7 or higher.
**Result** Yes

---

Tested on: SNU-C2B
MEASUREMENT_DESCRIPTION: Drug combination screen (ATPlite, Synergy Score), SNU-C2B
ASSAY_CONDITIONS: compound in combination with IgG1-hDR5-01-G56T-E430G + IgG1-hDR5-05-E430G; SNU-C2B; 72 hour ATPlite, 6x6 matrix
OBSERVABLE: Synergy Score SNU-C2B
Reply with the value as a number alone.

The reported value for O=C1NC(=O)C(c2ccccc2[N+](=O)[O-])=C1Nc1ccc(O)c(Cl)c1 in terms of Synergy Score SNU-C2B is 0.7

The reported value for O=C(c1cc(Cc2n[nH]c(=O)c3ccccc23)ccc1F)N1CCN(C(=O)C2CC2)CC1 in terms of Synergy Score SNU-C2B is 2.5

The reported value for Cc1ccc(NC(=O)c2ccc(CN3CCN(C)CC3)cc2)cc1Nc1nc(-c2cccnc2)cs1 in terms of Synergy Score SNU-C2B is 1.7

---

Tested on: DLD-1
MEASUREMENT_DESCRIPTION: Drug combination screen (ATPlite, Synergy Score), DLD-1
ASSAY_CONDITIONS: compound in combination with IgG1-hDR5-01-G56T-E430G + IgG1-hDR5-05-E430G; DLD-1; 120 hour ATPlite, 6x6 matrix
OBSERVABLE: Synergy Score DLD-1
Reply with the value as a number alone.

The reported value for Cn1c(=O)n(-c2ccc(C(C)(C)C#N)cc2)c2c3cc(-c4cnc5ccccc5c4)ccc3ncc21 [BEZ235] in terms of Synergy Score DLD-1 is 2.4

The reported value for CCc1cc(Nc2nccc(-c3c(-c4ccc(OC)c(C(=O)Nc5c(F)cccc5F)c4)nc4ccccn34)n2)c(OC)cc1N1CCC(N2CCN(S(C)(=O)=O)CC2)CC1 [GSK1904529A] in terms of Synergy Score DLD-1 is 1.4

The reported value for CNC(=O)c1ccc(-c2cnc3ncc(Cc4ccc5ncccc5c4)n3n2)cc1F [INCB28060] in terms of Synergy Score DLD-1 is 0.2

The reported value for CS(=O)(=O)c1ccc(C(=O)Nc2ccc(Cl)c(-c3ccccn3)c2)c(Cl)c1 [GDC-0449] in terms of Synergy Score DLD-1 is 0.1

The reported value for Cn1cnc2c(F)c(Nc3ccc(Br)cc3Cl)c(C(=O)NOCCO)cc21 [AZD6244] in terms of Synergy Score DLD-1 is 1.5

The reported value for Nc1cccc2c1CN(C1CCC(=O)NC1=O)C2=O (stereo not shown) [Lenalidomide] in terms of Synergy Score DLD-1 is 0

The reported value for COc1cccc2c1C(=O)c1c(O)c3c(c(O)c1C2=O)C[C@@](O)(C(=O)CO)C[C@@H]3O[C@H]1C[C@H](N)[C@H](O)[C@H](C)O1 [Doxorubicin] in terms of Synergy Score DLD-1 is 16.2
